# assay-details: folding stability dG unfold (combined trypsin and chymotrypsin); higher = more stable
readout-type: folding stability dG unfold (kcal/mol)
One number for each entry, in kcal/mol.

Please review the entries below; each comes with its answer.
Quick check: folding stability dG unfold of SPVSLSFTTAPSGLPTVTSASQPADGSLLLTLTEPATGATTTLTLPPGLPPGVERTVTLPGPDGATTLTVGS [r1_43_JUSTAS] ?
0.364

# folding stability dG unfold lookup, item SAGKSKPILVEITFPNGEKAKVLAVEFPNTVYVFAVVTSKDGSKYLVEAIIDVSPTKIKIFTKSYPLESAGG [r19_385_TrMRF]
3.64

Requested field: folding stability dG unfold. Item: SAGGSAGGSAGGPSSLLDGTPVELSVSPVEVNSVSTVTLPNGSTVPVSKKVKKTVVSVVASAGGSAGGSAGG [r7_90_JUSTAS]
0.23

Fill in the blank: the reported folding stability dG unfold of SAGGPGAAPTSTTVTVTIHLPMPPDVSDEEAKALAKERIKEEFPPSYTIESITVDPATNVVTATVKVASAGG [r19_81_JUSTAS] is ____.
3.11

Parameters: items (list). Returns: folding stability dG unfold for each item.
1. SAGGSAGGSKKPPIYKIEIEIDGKKLTIEAKSKEEALKALKEELKKKYPNLKITKIKIEKVKPSAGGSAGGS [r12_429_TrROS_Hall]
2. SAGGSAGGSPPPDIKVEVESYENPDGQRYYRVTITIDDGRPFDIWMPPGMSPSEAKNWLKDLLSAGGSAGGS [r12_1019_TrROS]
3. SALDVPPDARVYVFRLRYPVPPGVSAADVAARVRAELSERFGPDVEIVVTVTPDPETGEVLVEAVVVEPVSA [r9_657_TrMRF]

1: 2.14; 2: 3.78; 3: 3.82

---

Field: folding stability dG unfold. Provide a value for each of the sequences that follow.
# assay-details: folding stability dG unfold from chymotrypsin proteolysis; higher = more stable
Answers are plain numbers, in kcal/mol.

So what's the measured folding stability dG unfold for this one? SAGGSAGGSAGGKVYFLPDNTVVYELPDGLYLAVTVNENGEPSRTLYRVLSPTEIKPFPLSAGGSAGGSAGG [r7_423_TrMRF]
1.66

I am curious: what folding stability dG unfold value has been reported for SAGSMPPSTTTSEEVTVGGKKVKRTTTVYRAPNGTPSVTSTYTLGETPGVEDPLSGKALTPEERAAAAASAG [r5_138_JUSTAS] ?
0.564

Given the sequence SAGGSWTIDIDPEKVKEVEHKRNPNGMNEHRLELPNKNGKKREVKIPMGMKSPEDALDEIRELLGKSAGGSA [r2_347_TrROS] , what is its reported folding stability dG unfold?
0.663

Sample SAGGGSMVTQTEFTLPDGTKVSESTLPDGTVTTTITDPTNPTVTTSPVRTVSPGPLSPANPALVAALSAGGS [r16_482_JUSTAS] — what was its folding stability dG unfold?
-0.17

Suppose we examine the sequence SAGGKKKVIEIKIEIKVPKEELKNMTKEEIAELLKKELEKKGIKIKKIEIVEIEIDGDTVTITIRIELSAGG [r13_432_TrROS_Hall] ; what folding stability dG unfold value has been reported?
2.92

Dear reader, for each entry below, please note its folding stability dG unfold.
1. SDMKIRIDDIDIQPLDEDGQPITINYKIEFGGQPVYFQIEIWVKPDGPVVIKIDIYNPDNGKPFEWTFPISA [r9_241_TrROS]
2. SAGMYTITISRLPGGEYEVRVTDAANGEEVARRPVASEEEARAEAERIAAEIAEADPDVEVRVSESDAESAG [r5_383_JUSTAS]
3. SAGKKTIMIFIPGNMPLDTLKSALRNLPPNVEIHIMYPGQMQTITYDPDDIEIELPPGFPNFYIMIEVPSAG [r5_373_TrROS]
4. SAGGSAGGSKKKKVIEIKISEEELKKLGLTKEEIAKKLAEKFPNIKKNVRIEKNKDGTLKIYVSAGGSAGGS [r12_50_TrROS_Hall]
5. SAGSMHLVEFTGTEEVVDEFLASLPPEVVVERERYPDRWLVRLPPDVPARTITVPTPDGRPVTFTLRLESAG [r5_123_JUSTAS]
6. SAGGMVTIELREVSEEEALKLAEELPPNTLLIPFPFGNLVLPVRVPDDPEVREKVAEEIRKFLEALPSAGGS [r16_311_TrMRF]
7. SAGQTITFELKDPDITPEELQKKLQKRFGMKPMNIKPVEPDPDGWRFVIEFPENGGTRTFPWEEIRELISAG [r5_550_TrROS]

2.83
2.96
2.65
1.27
-0.346
0.0455
1.12

Look up folding stability dG unfold for the entries below, preserving their order.
1. SAAPVRVEVEYDPERGVLRVRLYIPATSPEEARELVERFFAALGAEARITENPETGTFVVEVDIRLPPASAG [r14_424_TrMRF]
2. SMTTTTLPDGTTVTTLSDGTVKTVTHYPDSVVTETSPITYKLPDGREFTTKEEAEAYEKETGIPVSPALASA [r9_660_JUSTAS]

1. 5.15
2. 0.255
